Reference source: patent US20250197488A1

Target: T1, human IL-11 (AAH12506.1, Pro22-Leu199) (human, UniProt P20809 22-199)
T1 construct: The range Pro22-Leu199 counts on AAH12506.1; The Octet runs say only 'human IL-11'; also called hIL-11
T1 chain: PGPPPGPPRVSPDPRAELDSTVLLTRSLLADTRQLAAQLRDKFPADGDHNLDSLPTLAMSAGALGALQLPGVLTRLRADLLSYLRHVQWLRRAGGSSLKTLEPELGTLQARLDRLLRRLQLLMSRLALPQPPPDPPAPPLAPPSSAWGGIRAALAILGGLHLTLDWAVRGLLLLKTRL
Experiment: BLI (Octet), antibody captured, human IL-11 in solution
Observable: kon (M⁻¹ s⁻¹)
Could you give me the number in M⁻¹ s⁻¹? Just the number is fine.

Here's what some known entries look like.
Binder	Unit descriptor	kon
hz8C8-VHm1-m3 + hz8C8-VLm7 (antibody, human IgG1, kappa, V domains shown, human IgG1 constant regions) VH: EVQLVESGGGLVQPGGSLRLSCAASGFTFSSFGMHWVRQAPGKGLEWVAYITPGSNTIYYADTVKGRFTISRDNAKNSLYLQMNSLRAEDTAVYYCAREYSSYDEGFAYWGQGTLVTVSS VL: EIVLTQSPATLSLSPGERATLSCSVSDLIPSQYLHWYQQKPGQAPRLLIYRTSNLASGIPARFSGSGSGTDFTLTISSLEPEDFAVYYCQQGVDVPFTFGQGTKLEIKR	M⁻¹ s⁻¹	1.12e+06
hz8C8-VHm1 + hz8C8-VLm3 (antibody, human IgG1, kappa, V domains shown, human IgG1 constant regions) VH: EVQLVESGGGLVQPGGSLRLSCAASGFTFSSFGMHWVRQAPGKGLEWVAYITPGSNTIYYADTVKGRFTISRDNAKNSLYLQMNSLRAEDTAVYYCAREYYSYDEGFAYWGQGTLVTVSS VL: EIVLTQSPATLSLSPGERATLSCSVSSLISSNYLHWYQQKPGQAPRLLIYRTSNLASGIPARFSGSGSGTDFTLTISSLEPEDFAVYYCQQGVDVPFTFGQGTKLEIKR	M⁻¹ s⁻¹	780000

Now look at this one.
// kon value for hz8C8-VHm1-m7 + hz8C8-VLm7-m2 (antibody, human IgG1, kappa, V domains shown, human IgG1 constant regions) VH: EVQLVESGGGLVQPGGSLRLSCAASGFTFSSFGMHWVRQAPGKGLEWVSVITPGSNTIYYADTVKGRFTISRDNAKNSLYLQMNSLRAEDTAVYYCAREYYSYDEGFAYWGQGTLVTVSS VL: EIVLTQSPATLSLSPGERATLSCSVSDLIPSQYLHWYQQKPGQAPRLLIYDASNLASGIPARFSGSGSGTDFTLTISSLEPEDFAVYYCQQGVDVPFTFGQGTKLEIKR : 595000
